- Target or system: LXRβ (Homo sapiens)
- Construct: Co-transfection expression plasmids, comprising full-length LXRα (pCMX-h LXRα[…] or LXRβ (pCMX-hLXRβ)); expressed in transfected cells; host or cells: CV-1 African Green Monkey Kidney Cells
- Sequence (P55055 1-460): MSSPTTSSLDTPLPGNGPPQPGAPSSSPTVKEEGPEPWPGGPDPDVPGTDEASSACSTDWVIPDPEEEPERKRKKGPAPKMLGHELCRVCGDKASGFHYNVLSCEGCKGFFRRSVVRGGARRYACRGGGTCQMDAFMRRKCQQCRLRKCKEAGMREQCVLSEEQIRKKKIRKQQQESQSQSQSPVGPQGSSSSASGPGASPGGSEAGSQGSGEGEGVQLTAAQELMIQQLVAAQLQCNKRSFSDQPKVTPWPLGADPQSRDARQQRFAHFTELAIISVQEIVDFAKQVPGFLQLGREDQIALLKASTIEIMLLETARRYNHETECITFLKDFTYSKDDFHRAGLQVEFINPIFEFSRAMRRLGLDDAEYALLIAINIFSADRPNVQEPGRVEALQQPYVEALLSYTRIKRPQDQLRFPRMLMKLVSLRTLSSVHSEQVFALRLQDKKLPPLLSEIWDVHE
- Sequence (P19793 1-462 partner): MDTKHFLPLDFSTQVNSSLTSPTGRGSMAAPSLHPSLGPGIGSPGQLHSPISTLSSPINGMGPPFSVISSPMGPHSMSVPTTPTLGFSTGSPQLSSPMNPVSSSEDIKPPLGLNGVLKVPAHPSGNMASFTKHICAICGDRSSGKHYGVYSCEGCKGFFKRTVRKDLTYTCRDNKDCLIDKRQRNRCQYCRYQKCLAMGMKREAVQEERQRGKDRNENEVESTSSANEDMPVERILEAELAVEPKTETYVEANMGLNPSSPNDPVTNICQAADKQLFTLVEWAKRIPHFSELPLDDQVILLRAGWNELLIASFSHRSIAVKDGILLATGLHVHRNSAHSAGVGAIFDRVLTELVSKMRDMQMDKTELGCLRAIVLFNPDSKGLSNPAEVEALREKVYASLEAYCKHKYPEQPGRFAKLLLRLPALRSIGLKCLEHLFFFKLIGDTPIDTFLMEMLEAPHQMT
- Assay protocol: Co-transfection assay (LXRE luciferase reporter), LXRβ
- Format: cell-based
- Condition notes: LXRβ co-transfection; relative to high control 1-(2,4-difluorobenzyl)-2-oxo-6-(4-phenoxyphenyl)-4-(trifluoromethyl)-1,2-dihydropyridine-3-carbonitrile; read-out: % Efficacy
Endpoint: Emax (%)

Cc1nc(C(F)(F)F)cn1-c1ccc(-c2cccc(S(C)(=O)=O)c2)cc1-n1nncc1-c1ccc(Cl)cc1: 98
Cc1nc(C(F)(F)F)cn1-c1ccc(-c2cc(F)c(CO)c(S(C)(=O)=O)c2)cc1-c1nc(CC(C)C)oc1-c1ccc(OC(F)(F)F)cc1: 71
Cc1nc(-c2cc(-c3ccc(CO)c(S(C)(=O)=O)c3)ccc2-n2cc(C(F)(F)F)nc2C)c(-c2ccc(OC(F)F)c(F)c2)o1: 88
CCS(=O)(=O)c1cccc(-c2ccc(-n3cc(C(F)(F)F)nc3C)c(-n3nncc3C(C)c3ccc(C)cc3)c2)c1 (stereo not drawn): 83
Cc1nc(-c2cc(-c3cccc(C(=O)N(C)C)c3)ccc2-n2cc(C(F)(F)F)nc2C)c(-c2ccc3c(c2)OC(F)(F)O3)o1: 73
Cc1nc(C(F)(F)F)cn1-c1ccc(-c2cccc(S(C)(=O)=O)c2)cc1-n1nncc1-c1ccc(C(F)(F)F)nc1: 81

Reference for the values: patent US9834542B2
